Target: T1, human MASP-2 catalytic fragment CCP1-CCP2-SP (human, UniProt O00187 287-686, limits assumed)
T1 construct: domain: CCP1-CCP2-SP; also called human MASP-2cf; human MASP2cf
T1 sequence (O00187 287-686 limits assumed): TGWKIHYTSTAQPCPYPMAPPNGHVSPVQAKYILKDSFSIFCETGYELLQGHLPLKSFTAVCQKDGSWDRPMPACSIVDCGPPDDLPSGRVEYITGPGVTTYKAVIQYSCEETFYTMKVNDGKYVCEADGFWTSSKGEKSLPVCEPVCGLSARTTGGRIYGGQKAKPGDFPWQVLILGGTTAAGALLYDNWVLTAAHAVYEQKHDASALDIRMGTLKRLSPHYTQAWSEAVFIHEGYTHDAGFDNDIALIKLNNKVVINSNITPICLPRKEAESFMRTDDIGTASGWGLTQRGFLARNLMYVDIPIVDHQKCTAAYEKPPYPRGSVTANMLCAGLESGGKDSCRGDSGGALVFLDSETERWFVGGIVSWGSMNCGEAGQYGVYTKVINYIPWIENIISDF
Assay: enzyme inhibition, Z-L-Lys-SBzl/DTNB, tight-binding fit, catalytic fragment CCP1-CCP2-SP
Procedure: For determining the KI of the inhibitors on MASP enzymes we used catalytic enzyme fragments containing the three C-terminal domains: CCP1-CCP2-SP. […] The release of the chromophore group created in this way was monitored via the change of absorbance at 410 nm using a BioTek Synergy H4 multimode microplate reader. […] where E is the free (uninhibited) enzyme concentration, and E₀ is the total enzyme concentration. […] The results were calculated as the average of parallel measurements.
Where no end group is shown, it is not given here.
assayEndpoint: Ki (nM)
All answers are understood in nM, so give the number only.

The reported Ki of the binder GSGEVTCEPGTTFKDKCNTCRCGSDGKSAVCTKLWCNQ (designed binder, Comparator from WO 2012/007777) [SGMI-2 (SGCI-based MASP inhibitor 2)] was 8.1

Measured Ki of protein according to SEQ ID NO: 17 (TFPI-D2 variant with the inhibitor loop VCRAVKR) (designed binder, ends and bridges not checked; cysteine pairing not given here, Made as m1) KPDFCFLEEDPGVCRAVKRRYFYNNQTKQCERFKYGGCLGNMNNFETLEECKNICEDG : 36.7

Noted for protein according to SEQ ID NO: 14 (TFPI-D2 variant with the inhibitor loop PCRAVKR) (designed binder, ends and bridges not checked; cysteine pairing not given here, Made as m1) KPDFCFLEEDPGPCRAVKRRYFYNNQTKQCERFKYGGCLGNMNNFETLEECKNICEDG : its Ki reads 7.9

Note to self: Ki recorded for protein according to SEQ ID NO: 11 (TFPI-D2 variant with the inhibitor loop FCRAVKR) (designed binder, ends and bridges not checked; cysteine pairing not given here, Made in E. coli as a His6-S100A4 fusion and freed by TEV protease) KPDFCFLEEDPGFCRAVKRRYFYNNQTKQCERFKYGGCLGNMNNFETLEECKNICEDG was 2
